- test_protocol: physchem
- conditions: pH 7.4
attribute_measured: logD at 1 h

COCCOCCOCCOc1ccc(C2=NC(C)(C(=O)O)CO2)c(O)c1 (centres unmarked) [Example 2]: -1.77

a: COCCOCCOc1ccc(C2=N[C@@](C)(C(=O)O)CS2)c(O)c1 [Example A]
b: COCCOCCOCCOc1ccc(C2=NC(C)(C(=O)O)CN2)c(O)c1 (centres unmarked) [Example 4]
From the recorded data, which exceeds the other in logD at 1 h: a or b ? Field: selected label. Fill in the label of the entry you choose. a

----------
- test_protocol: Solubility determination in PBS by LC/MS/MS
- conditions: PBS pH 7.4, 25 °C, pH 7.4, aqueous buffer, kinetic from dmso stock
attribute_measured: solubility at 2 h (µM)

COCCOCCOCCOc1ccc(C2=NC(C)(C(=O)O)CN2)c(O)c1 (stereo not drawn) [Example 4]: 316
COCCOCCOc1ccc(C2=NC(C)(C(=O)O)CO2)c(O)c1 (stereo not drawn) [Example 1]: 312
COCCOCCOc1cccc(C2=NC(C)(C(=O)O)CN2)c1O (stereo not drawn) [Example 5]: 311
COCCOCCOc1ccc(C2=NC(C)(C(=O)O)CN2)c(O)c1 (stereo not drawn) [Example 3]: 299
COCCOCCOCCOc1ccc(C2=N[C@@](C)(C(=O)O)CS2)c(O)c1 [Example B]: 313
COCCOCCOCCOc1ccc(C2=NC(C)(C(=O)O)CO2)c(O)c1 (stereo not drawn) [Example 2]: 291
COCCOCCOCCOc1cccc(C2=NC(C)(C(=O)O)CN2)c1O (stereo not drawn) [Example 6]: 311
COCCOCCOCCOc1ccc(-n2ccc(C(=O)O)n2)c(O)c1 [Example 8]: 298
COCCOCCOc1ccc(-n2ccc(C(=O)O)n2)c(O)c1 [Example 7]: 297

----------
- test_protocol: physchem
- conditions: 25 °C, pH 4, aqueous buffer, kinetic from dmso stock
attribute_measured: solubility at 2 h (µM)
Unit µM implied. Number only.

Quick one: solubility at 2 h for COCCOCCOc1ccc(C2=N[C@@](C)(C(=O)O)CS2)c(O)c1 ? 309

----------
- test_protocol: Solubility determination in PBS by LC/MS/MS
- conditions: PBS pH 4.0, 25 °C, pH 4, aqueous buffer, kinetic from dmso stock
attribute_measured: solubility at 2 h (µM)

Worked examples follow.
COCCOCCOc1cccc(C2=NC(C)(C(=O)O)CN2)c1O (stereo not shown): 306
COCCOCCOc1ccc(C2=NC(C)(C(=O)O)CN2)c(O)c1 (stereo not shown): 302
COCCOCCOc1ccc(-n2ccc(C(=O)O)n2)c(O)c1: 294

a: COCCOCCOCCOc1ccc(C2=N[C@@](C)(C(=O)O)CS2)c(O)c1
b: O=C(O)Cc1ccccc1Nc1c(Cl)cccc1Cl
# query: argmin of solubility at 2 h over a and b Field: selected label. Fill in the label of the entry you choose. b

----------
- test_protocol: physchem
- conditions: 25 °C, pH 7.4, aqueous buffer, kinetic from dmso stock
attribute_measured: solubility at 2 h (µM)
Unit µM implied. Number only.

Quick one: solubility at 2 h for COCCOCCOc1ccc(C2=N[C@@](C)(C(=O)O)CS2)c(O)c1 ? 305

----------
- test_protocol: physchem
- conditions: pH 7.4
attribute_measured: logD at 1 h

Worked examples follow.
COCCOCCOCCOc1ccc(-n2ccc(C(=O)O)n2)c(O)c1 [Example 8]: -2.14
COCCOCCOc1ccc(C2=NC(C)(C(=O)O)CN2)c(O)c1 (centres unmarked) [Example 3]: -1.87
COCCOCCOc1cccc(C2=NC(C)(C(=O)O)CN2)c1O (centres unmarked) [Example 5]: -2.09

A: COCCOCCOc1ccc(-n2ccc(C(=O)O)n2)c(O)c1 [Example 7]
B: COCCOCCOc1ccc(C2=NC(C)(C(=O)O)CO2)c(O)c1 (centres unmarked) [Example 1]
From the recorded data, which exceeds the other in logD at 1 h: A or B ? Field: selected label. Fill in the label of the entry you choose. B
